Attribution: patent US12637473B2

tested on: RS4; 11 cells; assay: Cell growth inhibition by WST assay with Cpd. C co-treatment (CRBN competition); type: cell-based; conditions: 4 days, + 20 uM Cpd. C
READOUT_TYPE: IC50 (nM)

[[record]]
molecule = "O=C1CCC(N2Cc3c(NCCOCCOCCOCCNC(=O)c4ccc(NC(=O)[C@@H]5NC6(CCCCC6)[C@@]6(C(=O)Nc7cc(Cl)ccc76)[C@H]5c5cccc(Cl)c5F)cc4)cccc3C2=O)C(=O)N1 (stereo partly shown) [Cpd. No. 22]"
reported_measurement = 89.6

[[record]]
molecule = "O=C1CCC(N2C(=O)c3cccc(NCCOCCOCCNC(=O)c4ccc(NC(=O)[C@@H]5NC6(CCCCC6)[C@@]6(C(=O)Nc7cc(Cl)ccc76)[C@H]5c5cccc(Cl)c5F)cc4)c3C2=O)C(=O)N1 (stereo partly shown) [Cpd. No. 14]"
reported_measurement = 81.1

[[record]]
molecule = "O=C(O)c1ccc(NC(=O)[C@@H]2NC3(CCCCC3)[C@@]3(C(=O)Nc4cc(Cl)ccc43)[C@H]2c2cccc(Cl)c2F)cc1 [Cpd. A, reference compound]"
reported_measurement = 39

[[record]]
molecule = "O=C1CCC(N2C(=O)c3cccc(NCCOCCOCCOCCNC(=O)c4ccc(NC(=O)[C@@H]5NC6(CCCCC6)[C@@]6(C(=O)Nc7cc(Cl)ccc76)[C@H]5c5cccc(Cl)c5F)cc4)c3C2=O)C(=O)N1 (stereo partly shown) [Cpd. No. 15]"
reported_measurement = 68.2


---

tested on: RS4; 11 cells with stable shRNA knockdown of p53; test: Cell growth inhibition by WST assay, p53 knockdown cells; format: cell-based; settings: RS4;11 sh p53; 4 days
Below, each entry is listed with its recorded HiliSlope.
READOUT_TYPE: HiliSlope

[[record]]
molecule = "O=C1CCC(N2C(=O)c3cccc(NCCOCCOCCOCCNC(=O)c4ccc(NC(=O)[C@@H]5NC6(CCCCC6)[C@@]6(C(=O)Nc7cc(Cl)ccc76)[C@H]5c5cccc(Cl)c5F)cc4)c3C2=O)C(=O)N1 (stereo partly drawn) [Cpd. No. 15]"
reported_measurement = "−0.8905"

[[record]]
molecule = "COCCONC(=O)c1ccc(NC(=O)[C@@H]2NC3(CCCCC3)[C@@]3(C(=O)Nc4cc(Cl)ccc43)[C@H]2c2cccc(Cl)c2F)cc1 [Cpd. B, reference compound]"
reported_measurement = "−0.7973"

[[record]]
molecule = "O=C1CCC(N2C(=O)c3cccc(NCCOCCOCCNC(=O)c4ccc(NC(=O)[C@@H]5NC6(CCCCC6)[C@@]6(C(=O)Nc7cc(Cl)ccc76)[C@H]5c5cccc(Cl)c5F)cc4)c3C2=O)C(=O)N1 (stereo partly drawn) [Cpd. No. 14]"
reported_measurement = "−0.4731"

[[record]]
molecule = "O=C(O)c1ccc(NC(=O)[C@@H]2NC3(CCCCC3)[C@@]3(C(=O)Nc4cc(Cl)ccc43)[C@H]2c2cccc(Cl)c2F)cc1 [Cpd. A, reference compound]"
reported_measurement = "−0.4240"

[[record]]
molecule = "O=C1CCC(N2Cc3c(NCCOCCOCCNC(=O)c4ccc(NC(=O)[C@@H]5NC6(CCCCC6)[C@@]6(C(=O)Nc7cc(Cl)ccc76)[C@H]5c5cccc(Cl)c5F)cc4)cccc3C2=O)C(=O)N1 (stereo partly drawn) [Cpd. No. 21]"
reported_measurement = "−0.4410"

[[record]]
molecule = "O=C1CCC(N2Cc3c(NCCOCCOCCOCCNC(=O)c4ccc(NC(=O)[C@@H]5NC6(CCCCC6)[C@@]6(C(=O)Nc7cc(Cl)ccc76)[C@H]5c5cccc(Cl)c5F)cc4)cccc3C2=O)C(=O)N1 (stereo partly drawn) [Cpd. No. 22]"
reported_measurement = "−0.8833"

